# Experimental system: Tyrosine-protein kinase Blk (Homo sapiens);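 further: reported value is the mean percent inhibition of BLK kinase activity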
# Run parameters: at 0.1 µM
Endpoint label: inhibition (%)
Give bare numbers, in %.

Provide reported inhibition for each item, in the same order as listed.
1. CN(C)c1cc2c(Nc3ccc4c(cnn4Cc4ccccc4)c3)ncnc2cn1
2. CC(C)c1ccc2c(c1)NC(=O)/C2=N/Nc1ccc(S(N)(=O)=O)cc1
3. Cc1cc(-c2ccccn2)cc(C)c1/C=C/c1cncc(-c2nn[nH]n2)c1

output:
[3.2, 1.27, 5.71]

* * *

# Experimental system: RAC-alpha serine/threonine-protein kinase (Homo sapiens)
# Run parameters: at 1 µM
# Description: GSK_PKIS: AKT1 mean inhibition at 1 uM [Nanosyn]
// F strictly below 0.9% in inhibition; T otherwise

>>> assigned_label("CN(C)c1cc2c(Nc3ccc4c(cnn4Cc4ccccc4)c3)ncnc2cn1")
"F"

input: Is inhibition at least 0.9%? Consider N#Cc1cccc(Nc2nccc(-c3cnn4ncccc34)n2)c1
output: T

input: Is inhibition at least 0.9%? Consider Cc1cc(-c2ccccn2)cc(C)c1/C=C/c1cncc(-c2nn[nH]n2)c1
output: F

input: Is inhibition at least 0.9%? Consider COc1cc2ncnc(Nc3ccc4c(cnn4Cc4ccccc4)c3)c2cc1OC
output: F

* * *

# Experimental system: Angiopoietin-1 receptor (Homo sapiens) (UniProt Q02763);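 further: reported value is the mean TIE2 inhibition from the GSK PKIS dataset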
# Sequence (Q02763 whole entry): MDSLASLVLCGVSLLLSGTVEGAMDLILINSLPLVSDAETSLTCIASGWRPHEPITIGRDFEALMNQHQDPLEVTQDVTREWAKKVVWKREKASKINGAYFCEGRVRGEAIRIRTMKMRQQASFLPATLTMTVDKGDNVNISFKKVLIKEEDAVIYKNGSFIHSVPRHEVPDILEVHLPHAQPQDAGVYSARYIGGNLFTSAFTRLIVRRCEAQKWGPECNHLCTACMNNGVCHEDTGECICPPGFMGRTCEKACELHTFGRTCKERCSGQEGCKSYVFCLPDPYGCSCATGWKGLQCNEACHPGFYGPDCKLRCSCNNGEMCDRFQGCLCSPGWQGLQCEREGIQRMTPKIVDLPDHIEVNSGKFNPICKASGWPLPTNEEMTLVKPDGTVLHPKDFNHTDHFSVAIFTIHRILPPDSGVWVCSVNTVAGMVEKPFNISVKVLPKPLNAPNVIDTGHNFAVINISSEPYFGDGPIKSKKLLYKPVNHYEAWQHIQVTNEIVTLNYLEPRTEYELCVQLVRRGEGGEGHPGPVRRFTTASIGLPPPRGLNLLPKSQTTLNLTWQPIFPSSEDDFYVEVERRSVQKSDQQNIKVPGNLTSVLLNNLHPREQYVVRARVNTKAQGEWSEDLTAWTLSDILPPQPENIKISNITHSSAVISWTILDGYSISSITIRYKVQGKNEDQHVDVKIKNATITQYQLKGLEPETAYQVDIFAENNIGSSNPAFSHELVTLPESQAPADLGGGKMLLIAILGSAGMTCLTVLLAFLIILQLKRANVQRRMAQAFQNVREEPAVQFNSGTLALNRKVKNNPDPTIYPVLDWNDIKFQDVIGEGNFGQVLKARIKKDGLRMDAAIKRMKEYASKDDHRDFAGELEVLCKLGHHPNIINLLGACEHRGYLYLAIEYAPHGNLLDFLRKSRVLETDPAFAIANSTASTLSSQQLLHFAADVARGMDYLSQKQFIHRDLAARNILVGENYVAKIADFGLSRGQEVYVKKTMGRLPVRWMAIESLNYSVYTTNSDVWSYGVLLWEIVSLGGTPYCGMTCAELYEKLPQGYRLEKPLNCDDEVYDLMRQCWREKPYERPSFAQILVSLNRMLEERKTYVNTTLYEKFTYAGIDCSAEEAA
# Run parameters: at 1 µM
Classes (inhibition): zone 1 = under 5%, zone 2 = from 5% up to 9%, zone 3 = 9% and over

>>> assigned_label("Cc1ccc(O)cc1Nc1ccnc2ccc(S(C)(=O)=O)cc12")
"zone 3"
>>> assigned_label("Cc1ccc(C(=O)NC2CC2)cc1-c1ccc2[nH]ncc2c1")
"zone 1"
>>> assigned_label("Cc1ccc2c(-c3ccnc(Nc4ccc5c(c4)OCCO5)n3)c(-c3ccc(C(F)(F)F)cc3)nn2n1")
"zone 2"

input: Class for C[C@@H](Oc1cc(-n2cnc3ccc(OC[C@@H](O)CO)cc32)sc1C(N)=O)c1ccccc1Cl ?
output: zone 3

input: Class for CC(C)c1ccc(Nc2nccc(-c3cnn4ncccc34)n2)cc1 ?
output: zone 1

input: Class for NC(=O)c1cccc(Nc2nccc(Nc3cccc(F)c3)n2)c1 ?
output: zone 3

input: Class for O=C(Nc1ccc(Oc2ccc3[nH]c(NC(=O)c4ccco4)nc3c2)cc1)Nc1cc(C(F)(F)F)ccc1F ?
output: zone 3

input: Class for CCOc1nccc2c1nc(-c1nonc1N)n2CC ?
output: zone 2

input: Class for O=C1Nc2ccc(-c3cccnc3)cc2C1=Cc1cc(Br)c(O)c(Br)c1 ?
output: zone 1

input: Class for c1ccc(Nc2ncc(-c3ccccc3)o2)cc1 ?
output: zone 1

input: Class for CN(C)C(=O)O[C@@H]1CN[C@@H](C#Cc2cc3ncnc(Nc4ccc(OCc5cccc(F)c5)c(Cl)c4)c3s2)C1 ?
output: zone 1

input: Class for CN(C)c1cc2c(Nc3ccc4c(cnn4Cc4ccccc4)c3)ncnc2cn1 ?
output: zone 2

input: Class for CN(C)C(=O)O[C@H]1CN[C@H](C#Cc2cc3ncnc(Nc4ccc(OCc5cccc(F)c5)c(Cl)c4)c3s2)C1 ?
output: zone 2

input: Class for NS(=O)(=O)c1cccc(-c2cc3ccncc3cc2OCc2ccccc2)c1 ?
output: zone 2

input: Class for COc1cc2ncnc(Nc3ccc(C)c(O)c3)c2cc1OC ?
output: zone 3

input: Class for COc1cc2ncnc(Nc3ccc4c(cnn4Cc4ccccc4)c3)c2cc1OC ?
output: zone 3

input: Class for COc1ccc2ncnc(Nc3ccc(OCc4ccccc4)cc3)c2c1 ?
output: zone 2

input: Class for O=S(=O)(CCOCc1ccc(-c2ccc3ncnc(Nc4ccc(OCc5cccc(F)c5)c(Cl)c4)c3c2)o1)c1ccccc1 ?
output: zone 1

input: Class for N#Cc1cccc(Nc2nccc(-c3cnn4ncccc34)n2)c1 ?
output: zone 3

input: Class for Cc1cc(-c2ccccn2)cc(C)c1/C=C/c1cncc(-c2nn[nH]n2)c1 ?
output: zone 2

input: Class for FC(F)(F)c1ccc(-c2nn3ncccc3c2-c2ccnc(Nc3ccc4c(c3)OCCO4)n2)cc1 ?
output: zone 3

input: Class for Cc1cc(Cl)cc2c1NC(=O)C2=NNc1ccc(S(N)(=O)=O)cc1 ?
output: zone 1

input: Class for Cc1ccc2c(c1)/C(=N/Nc1ccc(S(N)(=O)=O)cc1)C(=O)N2 ?
output: zone 1

input: Class for C[C@@H](Oc1cc(-n2cnc3ccc(OCC4CCN(C)CC4)cc32)sc1C(N)=O)c1ccccc1C(F)(F)F ?
output: zone 3

input: Class for Nc1ccc(C#Cc2cncnc2Nc2ccc(OCc3cccc(F)c3)c(Cl)c2)cc1 ?
output: zone 1

input: Class for Cc1nc(-c2ccccc2)n2nc(NCCCN3CCOCC3)ncc12 ?
output: zone 2

input: Class for CC(C)c1ccc2c(c1)NC(=O)/C2=N/Nc1ccc(S(N)(=O)=O)cc1 ?
output: zone 1

* * *

What inhibition was measured for each of the following?
# Tested on: Epidermal growth factor receptor (Homo sapiens), P00533 [T790M]
# Sequence (P00533 whole entry T790M): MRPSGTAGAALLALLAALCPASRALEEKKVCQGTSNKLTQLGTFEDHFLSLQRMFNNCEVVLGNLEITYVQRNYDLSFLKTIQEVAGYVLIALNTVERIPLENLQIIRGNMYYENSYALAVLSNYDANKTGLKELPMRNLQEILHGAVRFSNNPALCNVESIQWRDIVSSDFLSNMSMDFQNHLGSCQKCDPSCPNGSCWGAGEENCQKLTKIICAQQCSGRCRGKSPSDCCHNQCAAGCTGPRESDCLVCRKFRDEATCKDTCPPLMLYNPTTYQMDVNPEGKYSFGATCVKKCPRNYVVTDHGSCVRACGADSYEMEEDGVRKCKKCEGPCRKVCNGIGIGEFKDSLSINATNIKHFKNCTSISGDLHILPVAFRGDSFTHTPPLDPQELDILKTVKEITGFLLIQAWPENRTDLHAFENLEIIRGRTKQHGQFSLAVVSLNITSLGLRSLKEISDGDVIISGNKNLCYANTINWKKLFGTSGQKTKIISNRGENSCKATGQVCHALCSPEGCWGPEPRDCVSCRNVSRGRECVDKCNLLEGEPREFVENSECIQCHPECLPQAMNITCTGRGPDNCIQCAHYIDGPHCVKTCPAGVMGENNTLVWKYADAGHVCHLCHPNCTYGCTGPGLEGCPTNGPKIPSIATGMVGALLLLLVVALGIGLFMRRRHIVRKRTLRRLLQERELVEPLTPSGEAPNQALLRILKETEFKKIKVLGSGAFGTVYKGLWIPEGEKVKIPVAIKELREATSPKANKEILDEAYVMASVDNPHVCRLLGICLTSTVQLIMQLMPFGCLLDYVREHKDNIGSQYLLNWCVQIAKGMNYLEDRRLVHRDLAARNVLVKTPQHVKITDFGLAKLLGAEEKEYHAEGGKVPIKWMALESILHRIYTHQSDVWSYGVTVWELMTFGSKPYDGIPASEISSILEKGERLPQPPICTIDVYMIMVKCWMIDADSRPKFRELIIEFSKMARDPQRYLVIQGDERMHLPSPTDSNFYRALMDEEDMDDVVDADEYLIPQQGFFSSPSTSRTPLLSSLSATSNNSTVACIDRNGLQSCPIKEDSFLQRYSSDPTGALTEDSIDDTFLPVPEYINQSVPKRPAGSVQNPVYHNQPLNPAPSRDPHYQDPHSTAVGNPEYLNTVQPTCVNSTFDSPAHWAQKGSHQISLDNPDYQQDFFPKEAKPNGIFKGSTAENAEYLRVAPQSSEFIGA
# Run parameters: at 0.1 µM
Write the numeric value and follow it with the unit.

Provide reported inhibition for each item, in the same order as listed.
1. Nc1ccc(C#Cc2cncnc2Nc2ccc(OCc3cccc(F)c3)c(Cl)c2)cc1
2. Cc1ccc2c(-c3ccnc(Nc4cccc(C(F)(F)F)c4)n3)c(-c3ccccc3)nn2n1
3. O=C(Nc1ccc(Oc2ccc3[nH]c(NC(=O)c4ccco4)nc3c2)cc1)Nc1cc(C(F)(F)F)ccc1F
4. CC(C)c1ccc(Nc2nccc(-c3cnn4ncccc34)n2)cc1
5. COc1cc2ncnc(Nc3ccc(C)c(O)c3)c2cc1OC
6. NC(=O)c1sc(-n2cnc3ccccc32)cc1OCc1ccccc1Br
7. NS(=O)(=O)c1cccc(-c2cc3ccncc3cc2OCc2ccccc2)c1
8. OCc1ccc(-c2nc(-c3ccccn3)c(-c3ccc4c(c3)OCO4)[nH]2)cc1

output:
["2.51%", "10.9%", "0.07%", "-0.27%", "8.64%", "1.26%", "2.32%", "2.68%"]

Provide reported inhibition for each item, in the same order as listed.
1. c1ccc(Cc2nc3ccc(Nc4ncnc5ccccc45)cc3[nH]2)cc1
2. CCn1c(-c2nonc2N)nc2ccc(F)cc21

output:
["2.05%", "3%"]

Provide reported inhibition for each item, in the same order as listed.
1. CCn1c(-c2nonc2N)nc2c(C#CC(C)(C)O)nc(OCCNC)cc21
2. Nc1nccc(-c2c(-c3ccc(F)cc3)nn3cc(C(F)(F)F)ccc23)n1
3. CC(C)c1ccc2c(c1)NC(=O)/C2=N/Nc1ccc(S(N)(=O)=O)cc1

output:
["1.88%", "0.44%", "-1.03%"]

Provide reported inhibition for each item, in the same order as listed.
1. COc1ccc(-c2nn3ncccc3c2-c2ccnc(Nc3cccc(C(F)(F)F)c3)n2)cc1
2. COc1cc(/C=N/Nc2ncnc3c2cnn3C(C)C)ccc1O
3. COC(=O)c1cncc(/C=C/c2c(C)cc(O)cc2C)c1
4. C[C@@H](Oc1cc(-n2cnc3ccc(OCC4CCN(C)CC4)cc32)sc1C(N)=O)c1ccccc1C(F)(F)F

output:
1%
0.17%
2.64%
-1.87%

* * *

# Experimental system: Ephrin type-B receptor 2 (Homo sapiens)
# Run parameters: at 1 µM
# Description: GSK_PKIS: EPHB2 mean inhibition at 1 uM [Nanosyn]
// 0.0 strictly below 30% in inhibition; 1.0 otherwise

>>> assigned_label("Cc1ccc2c(c1)/C(=N/Nc1ccc(S(N)(=O)=O)cc1)C(=O)N2")
0.0
>>> assigned_label("CS(=O)(=O)CCNCc1nc(-c2ccc3ncnc(Nc4ccc(OCc5cccc(C(F)(F)F)c5)cc4)c3c2)cs1")
0.0
>>> assigned_label("COc1cc2ncnc(Nc3ccc(C)c(O)c3)c2cc1OC")
1.0
>>> assigned_label("c1ccc(Nc2ncc(-c3ccccc3)o2)cc1")
0.0
>>> assigned_label("COC(=O)Nc1nc2cc(Oc3ccc(NC(=O)Nc4cccc(Br)c4)cc3)ccc2[nH]1")
1.0
>>> assigned_label("OCc1ccc(-c2nc(-c3ccccn3)c(-c3ccc4c(c3)OCO4)[nH]2)cc1")
0.0
>>> assigned_label("CN1CCN(C(=O)c2ccc(NC(=O)Nc3ccc(N(C)c4ccnc(Nc5ccc(CS(C)(=O)=O)cc5)n4)cc3)cc2)CC1")
1.0
>>> assigned_label("CCCN1CCCC(c2ccc(Nc3nc(Nc4cc(F)ccc4C(N)=O)c4cc[nH]c4n3)c(OC)c2)C1 (stereo unspecified)")
0.0
>>> assigned_label("C[C@@H](Oc1cc(-n2cnc3ccc(OC[C@@H](O)CO)cc32)sc1C(N)=O)c1ccccc1Cl")
0.0
>>> assigned_label("C[C@@H](Oc1cc(-n2cnc3ccc(OCC4CCN(C)CC4)cc32)sc1C(N)=O)c1ccccc1C(F)(F)F")
0.0

input: Is inhibition at least 30%? Consider Cc1cc(-c2ccccn2)cc(C)c1/C=C/c1cncc(-c2nn[nH]n2)c1
output: 0.0

input: Is inhibition at least 30%? Consider NS(=O)(=O)c1ccc(Nc2cc(-c3cccc(O)c3)n[nH]2)cc1
output: 0.0

input: Is inhibition at least 30%? Consider Oc1cccc(-c2nc(-c3ccccc3)[nH]c2-c2ccncc2)c1
output: 0.0

input: Is inhibition at least 30%? Consider COc1cc(Nc2nccc(-c3cnn4ncccc34)n2)cc(OC)c1
output: 1.0

input: Is inhibition at least 30%? Consider ON=C1CCc2cc(-c3nc(C4CCNCC4)[nH]c3-c3ccncc3)ccc21
output: 0.0
